// provenance: patent US20260015350A1

# SYSTEM: KRas^G12S (Homo sapiens, UniProt P01116, G12S)
# Construct: Biotinylated KRas (corresponding to amino acids 1-169, produced at Accelegan Inc.); biotin (biotinylated); purchased Accelegan Inc
# Sequence (P01116 1-169 isoform P01116-2 G12S): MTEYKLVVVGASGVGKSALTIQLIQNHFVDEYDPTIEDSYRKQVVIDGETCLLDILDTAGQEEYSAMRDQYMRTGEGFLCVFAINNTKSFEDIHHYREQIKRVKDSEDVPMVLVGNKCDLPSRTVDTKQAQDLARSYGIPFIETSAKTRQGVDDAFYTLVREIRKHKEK
# TEST_DETAILS: KRas binding assay (TR-FRET tracer displacement), KRas G12S
# EXPERIMENTAL_PARAMETERS: TR-FRET tracer displacement, KRas G12S
OUTCOME_MEASURE: IC50 (nM)

Some entries whose results are on file:
[[record]]
compound = "Cc1cc2[nH]ncc2c(-c2ncc3c(N4CCC[C@]5(C4)NC(=O)NC5=O)nc(OCC4(CN(C)C)CC4)nc3c2F)c1C [Example 732]"
val = 63

[[record]]
compound = "Oc1cc(-c2ncc3c(N4C[C@@H]5C[C@H](C4)[C@H](O)C5)nc(OC[C@@]45CCCN4C[C@H](F)C5)nc3c2F)c2ccc(F)cc2c1 [Example 749]"
val = 19

[[record]]
compound = "O=S1(=O)NCC2(CCCN(c3nc(OCC45CCCN4CCC5)nc4c(F)c(-c5cc(O)cc(Cl)c5C5CC5)ncc34)C2)N1 (stereo not drawn) [Example 745]"
val = 5

[[record]]
compound = "CCc1c(F)ccc2cc(O)cc(-c3ncc4c(N5C[C@@H]6C[C@H](C5)[C@H](O)C6)nc(OC[C@@]56CCCN5C[C@@H](OC)C6)nc4c3F)c12 [Example 925]"
val = 3


A. Oc1cc(-c2ncc3c(N4C[C@@H]5C[C@H](C4)[C@H](O)C5)nc(OC[C@@]45CCCN4C[C@H](F)C5)nc3c2F)c2ccccc2c1C(F)(F)F [Example 782]
B. O=C1NC(=O)C2(CCCN(c3nc(OCC45CCCN4CCC5)nc4c(F)c(-c5c6ccccc6cc6[nH]ncc56)ncc34)C2)N1 (stereo not drawn) [Example 755]
Query block: Hey, between A and B which has a smaller measured IC50? Select an item and report its label.
Result block: B
(B: 11 nM, A: 2570 nM)

====

# SYSTEM: KRas^Q61H (Homo sapiens, UniProt P01116, Q61H)
# Construct: Biotinylated KRas (corresponding to amino acids 1-169, produced at Accelegan Inc.); biotin (biotinylated); purchased Accelegan Inc
# Sequence (P01116 1-169 isoform P01116-2 Q61H): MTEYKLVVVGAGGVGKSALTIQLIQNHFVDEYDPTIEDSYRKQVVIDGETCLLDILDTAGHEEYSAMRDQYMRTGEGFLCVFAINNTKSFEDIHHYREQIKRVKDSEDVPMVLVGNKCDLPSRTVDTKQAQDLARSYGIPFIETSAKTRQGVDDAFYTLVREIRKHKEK
# TEST_DETAILS: KRas binding assay (TR-FRET tracer displacement), KRas Q61H
# EXPERIMENTAL_PARAMETERS: TR-FRET tracer displacement, KRas Q61H
OUTCOME_MEASURE: IC50 (nM)

Some entries whose results are on file:
[[record]]
compound = "Cc1cc2[nH]cnc2c(-c2ncc3c(N4CCC[C@@](C)(O)C4)nc(OCC45CCCN4CCC5)nc3c2F)c1C [Example 888]"
val = 539

[[record]]
compound = "Oc1cc(-c2ncc3c(N4C[C@@H]5C[C@H](C4)[C@H](O)C5)nc(OC[C@@]45CCCN4C[C@H](F)C5)nc3c2F)c2ccccc2c1Cl [Example 764]"
val = 3930

[[record]]
compound = "Cc1cc2[nH]nnc2c(-c2ncc3c(N4CCCC5(CNS(=O)(=O)N5)C4)nc(OCC45CCCN4CCC5)nc3c2F)c1C (stereo not drawn) [Example 855]"
val = 23

[[record]]
compound = "CC1(O)COCCN(c2nc(OCC34CCCN3CCC4)nc3c(F)c(-c4cc(O)cc(Cl)c4C4CC4)ncc23)C1 (racemic) [Example 740]"
val = 6


I. Cc1c(O)cc(-c2ncc3c(N4C[C@@H]5C[C@H](C4)[C@H](O)C5)nc(OC[C@@]45CCCN4C[C@H](F)C5)nc3c2F)c2ccccc12 [Example 790]
II. C[C@@]1(O)CCCN(c2nc(OC[C@@]34CCCN3C[C@H](F)C4)nc3c(F)c(-c4c(C5CC5)c(Cl)cc5[nH]ncc45)ncc23)C1 [Example 880]
Query block: Could you please tell me which of these two has the higher IC50: I or II ? Select an item and report its label.
Result block: I
(I: 11000 nM, II: 12 nM)
